B1: WW domain-containing transcription regulator protein 1, residues 116 to 162; numbered along this chain, Q9GZV5 (parent)
chain: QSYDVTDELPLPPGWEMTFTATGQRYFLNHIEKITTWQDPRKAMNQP

variants of: B1; assay: abundance fitness (aPCA) (normalised: wild type 0, dead -1); higher = more abundant; growth selection in yeast, the domain comes from the species named; settings: Homo sapiens
Entries get a class label from measured abundance fitness. See ranges: low: < -0.5; mid: ≥ -0.5 and < -0.09; high: ≥ -0.09

These solved cases illustrate the format of a correct answer.
S2F = high
N45Q = mid
M44P = high
W15S = low
D7K = high
A21S = high
P12V = low
Q1E = mid
G14N = high
L28K = high

Where would `F27L` land among the classes by reported abundance fitness?
low

Where would `E8I` land among the classes by reported abundance fitness?
mid

Where would `L28H` land among the classes by reported abundance fitness?
low

Where would `W37D` land among the classes by reported abundance fitness?
mid

Where would `L9G` land among the classes by reported abundance fitness?
high

Where would `L11F` land among the classes by reported abundance fitness?
high

Where would `E8F` land among the classes by reported abundance fitness?
mid

Where would `P40Y` land among the classes by reported abundance fitness?
low

Where would `K33D` land among the classes by reported abundance fitness?
low

Where would `G14D` land among the classes by reported abundance fitness?
mid

Where would `T35Q` land among the classes by reported abundance fitness?
low

Where would `R41W` land among the classes by reported abundance fitness?
low
